Listed next: entries and their corresponding TGI.
system: HOP-18 NSCLC; assay: NCI tumour cell line growth inhibition, 48 h

{"compound": "Cc1ccc(S(=O)(=O)N/N=C/C(C)C)cc1", "TGI": "> 100 µM"}
{"compound": "COc1cccc(SSc2cccc(OC)c2C(=O)O)c1C(=O)O", "TGI": "> 100 µM"}
{"compound": "C=C=CC(NC(=O)c1ccccc1)(C(=O)O)C(F)(F)F (stereo unspecified)", "TGI": "> 100 µM"}
{"compound": "Cc1nc2cc(Nc3ccccc3C(=O)O)ccc2s1", "TGI": "> 100 µM"}
{"compound": "CCC1(CN(C)C)CC/C(=C\\c2ccc(OC)c(OC)c2)C1=O (stereo unspecified)", "TGI": "> 100 µM"}
{"compound": "CC1=Nc2c([nH]c(=S)[nH]c2=O)NC(c2c(Cl)cccc2Cl)C1 (stereo unspecified)", "TGI": "30.2 µM"}
